pIC50: −log10 of the molar value.
The entries that follow carry pIC50 values tested on Non-receptor tyrosine-protein kinase TYK2 (Homo sapiens, UniProt P29597), drawn from several published reports.

Examples with answers:
compound	result
Cc1cnc(Nc2ccc(N3CCOCC3)c(F)c2)nc1N1CC(CCC#N)C1	> 8.00
CC1CCNC(=O)c2ccc(c([N+](=O)[O-])c2)-c2ccnc(n2)Nc2ccc(OC3CCCOC3)c(c2)COC1 (stereo not shown)	< 5.00

Next item in the queue.
Notebook: Cc1cc(Nc2nc(N[C@@H]3C[C@H]4CC[C@@H](C3)N4CCC#N)nc3ncccc23)n[nH]1 , pIC50 read as 9.82

----------
The entries that follow carry IC50 values tested on Non-receptor tyrosine-protein kinase TYK2 (Homo sapiens, UniProt P29597), drawn from several published reports.

molecule	result
C[C@@H]1CCCC[C@H]1n1cc(-c2nc(-c3cnn(C(CO)CO)c3)cn3nccc23)cn1 (single isomer, unassigned)	10 to 100 nM
COCCN1CCN(C2(CC#N)CN(c3nc(Nc4cnn(CCOC)c4)ncc3C)C2)CC1	< 120 nM
CCOC(=O)Cn1cc(Nc2ncc3ccn(CC(CC)CO)c3n2)cn1 (stereo not shown)	< 100 nM

Here Cc1cnc(Nc2cc(C3CC3)ns2)nc1N1CC(CC#N)(N2CCN(C)CC2)C1 was tested on Non-receptor tyrosine-protein kinase TYK2 (Homo sapiens, UniProt P29597), and its IC50 came to < 5 nM

Here O=C1NCCCCOCc2cc(ccc2Oc2cccc(F)c2)Nc2nccc(n2)-c2ccc1cc2[N+](=O)[O-] was tested on Non-receptor tyrosine-protein kinase TYK2 (Homo sapiens, UniProt P29597), and its IC50 came to > 10000 nM

Here CCC(Cn1ccc2cnc(Nc3cnn(C(=O)OC(C)(C)C)c3)nc21)C(C)C (stereo not shown) was tested on Non-receptor tyrosine-protein kinase TYK2 (Homo sapiens, UniProt P29597), and its IC50 came to < 100 nM

Here COc1cc(F)cc(Cl)c1COc1ccc2cc1COCCCCNC(=O)c1ccc(c(N)c1)-c1ccnc(n1)N2 was tested on Non-receptor tyrosine-protein kinase TYK2 (Homo sapiens, UniProt P29597), and its IC50 came to 1000 to 10000 nM

Here CN1CCc2cc(-c3cc4nccn4c(-c4cnn(C(CC#N)C5CC5)c4)n3)ccc2C1 (stereo not shown) was tested on Non-receptor tyrosine-protein kinase TYK2 (Homo sapiens, UniProt P29597), and its IC50 came to 10 to 100 nM

Here CC(C)Oc1ccc2cc1COCC[C@H](C)CNC(=O)c1ccc(c(N)c1)-c1ccnc(n1)N2 was tested on Non-receptor tyrosine-protein kinase TYK2 (Homo sapiens, UniProt P29597), and its IC50 came to > 10000 nM

Here CCc1ccc(Cl)cc1-n1cc(-c2ncnc3c2CCN3)cc1C(N)=O was tested on Non-receptor tyrosine-protein kinase TYK2 (Homo sapiens, UniProt P29597), and its IC50 came to 16 nM

----------
The entries that follow carry pIC50 values tested on Non-receptor tyrosine-protein kinase TYK2 (Homo sapiens, UniProt P29597), drawn from several published reports.
pIC50: −log10 of the molar value.

Examples with answers:
molecule	result
CCC(CC)n1cc(-c2nc(-c3cnn([C@H]4C[C@@](C)(O)C4)c3)cn3nccc23)cn1	> 8.00
CC1(C)CCC[C@@H]1n1cc(-c2nc(-c3cnn(C[C@@H](O)CO)c3)cn3nccc23)cn1	5.00 to 6.00
CCC(CC)Cn1ccc2cnc(Nc3cnn(CC(N)=O)c3)nc21	> 7.00
CC1CCNC(=O)c2ccc(c(N)c2)-c2ccnc(n2)Nc2ccc(OCC3CCC3)c(c2)COC1 (stereo not shown)	< 5.00
CCCN1CC(CC#N)(n2cc(-c3nc(-c4cnn(C)c4)cc4nccn34)cn2)C1	7.00 to 8.00
Nc1cc2ccc1-c1ccnc(n1)Nc1ccc(OCC3CC(F)(F)C3)c(c1)COc1ccc(cc1)NC2=O	< 5.00
O=C1NCCCCOCc2cc(ccc2OCC2CCc3ccccc32)Nc2nccc(n2)-c2ccc1cc2[N+](=O)[O-] (stereo not shown)	< 5.00
CNC(=O)c1n[nH]c2cc(-c3cc(F)c(O)cc3CC(F)(F)F)nc(NCc3ccccc3CS(N)(=O)=O)c12	6.82
COCCn1nc(C(=O)NCCC(F)(F)F)c2c1CCN(c1ncnc3[nH]ccc13)C2	< 5.70
CN1CCN(c2ccc(-c3cc4nccn4c(-c4cnn(C5(CC#N)CN(CC(F)(F)F)C5)c4)n3)cc2)CC1	> 8.00

Here CCOC(=O)Cn1cc(Nc2ncc3ccn(CC4CCCCC4C)c3n2)cn1 (stereo not shown) was tested on Non-receptor tyrosine-protein kinase TYK2 (Homo sapiens, UniProt P29597), and its pIC50 came to > 7.00

Here N#CCC(C1CC1)n1cc(-c2nc(-c3cnco3)cc3nccn23)cn1 (stereo not shown) was tested on Non-receptor tyrosine-protein kinase TYK2 (Homo sapiens, UniProt P29597), and its pIC50 came to 7.00 to 8.00

----------
The entries that follow carry IC50 values tested on Non-receptor tyrosine-protein kinase TYK2 (Homo sapiens, UniProt P29597), drawn from several published reports.
recorded-endpoint: IC50 (nM)

Examples with answers:
molecule	recorded-endpoint	unit-of-measure	numeric-readout
C[C@H](O)CS(=O)(=O)N[C@H]1C[C@@H](N(C)c2ncnc3[nH]ccc23)C1 (single isomer, unassigned)	IC50	nM	1210
O=C(CN1CCCC1)N1[C@@H]2CCC[C@H]1C[C@H](Nc1nc(Nc3ncc(CO)s3)cc3ncccc13)C2	IC50	nM	16.6
CCc1cc(O)c(F)cc1-c1nc(NCc2ccccc2N(C)S(=O)(=O)c2ccccc2)c2c(C(N)=O)n[nH]c2n1	IC50	nM	89.3
Cc1cc(Nc2nc(NC3CCN(CCC#N)CC3)nc3sccc23)n[nH]1	IC50	nM	0.45
Cc1ccc(-c2nnc(-c3n[nH]c4cc(-c5cc(F)c(O)cc5CC(F)(F)F)nc(NCc5ccccc5N(C)S(C)(=O)=O)c34)[nH]2)cn1	IC50	nM	126

P = Cn1cc(-c2cn3nccc3c(-c3cn([C@]4(CC#N)C[C@H](C#N)C4)nc3N)n2)cn1
Q = Cc1cc(Nc2nc(NC3CCN(CCC#N)CC3)nc3ccccc23)n[nH]1
Lookup: Form: Entry with minimum IC50 (choose one): P / Q Please reply using the label of the selected record.
Found: P

----------
The entries that follow carry pIC50 values tested on Non-receptor tyrosine-protein kinase TYK2 (Homo sapiens, UniProt P29597), drawn from several published reports.
pIC50: −log10 of the molar value.

structure-smiles-string	pIC50
CC1(CO[C@H]2CNc3cc(Nc4ncc(C(N)=O)c(NC5CC5)n4)ccc3OC2)COC1	> 8.00
O[C@H]1CC[C@@H](Nc2c(-c3ccccn3)cnc3[nH]ccc23)C1	6.00 to 7.00
CCOC(=O)Cn1cc(Nc2ncc3ccn(CCC4CCCCC4)c3n2)cn1	> 7.00

Next item in the queue.
Notebook: CCC(CC)n1cc(-c2nc(-c3cnn(CC(C)(C)CO)c3)cn3nccc23)cn1 , pIC50 read as 7.00 to 8.00

----------
The entries that follow carry IC50 values tested on UniProtKB P29597, drawn from several published reports.

Examples with answers:
molecule	IC50
C#CCCNc1nc(Nc2ccc3c(c2)NC[C@H](O)CO3)ncc1C(N)=O	< 10 nM
Cc1cc(Nc2ncc(C)c(N3CC(CC#N)(N4CC5NCCOC5C4)C3)n2)sn1 (stereo not shown)	< 100 nM
CCOC(=O)Cn1cc(Nc2ncc3ccn(Cc4ccsc4)c3n2)cn1	< 100 nM
Cn1cc(-c2cc3nccn3c(-c3cnn([C@@H](CC=C(F)F)C4CC4)c3)n2)cn1	< 10 nM
O=C1NCCCCOCc2cc(ccc2OCC2CCCOC2)Nc2nccc(n2)-c2ccc1cc2[N+](=O)[O-] (stereo not shown)	> 10000 nM
CN1CC[C@@H](OC(=O)Cn2cc(Nc3ncc4ccn(C[C@H]5CC[C@H](O)CC5)c4n3)cn2)C1	< 100 nM

Next item in the queue.
Here Cc1cnc(Nc2cccnc2)nc1N1CC(CC#N)(N2CCN3CCCC[C@H]3C2)C1 was tested on UniProtKB P29597, and its IC50 came to < 50 nM

----------
The entries that follow carry pIC50 values tested on Non-receptor tyrosine-protein kinase TYK2 (Homo sapiens, UniProt P29597), drawn from several published reports.
pIC50: −log10 of the molar value.

molecule	pIC50
O=C1NCCCCOCc2cc(ccc2OCC(F)(F)F)Nc2nccc(n2)-c2ccc1cc2[N+](=O)[O-]	< 5.00
NC(=O)c1cnc(Nc2ccc3c(c2)NC[C@H](O)CO3)nc1NC1CCCCC1	> 8.00
CCC(CC)n1cc(-c2nc(-c3cnn(CCN4CCNCC4=O)c3)cn3nccc23)cn1	7.00 to 8.00
C#CCC(C1CC1)n1cc(-c2nc(-c3cnn(C)c3)cc3nccn23)cn1 (stereo not shown)	> 8.00

Here N#CCC(=O)N1CCC[C@@H](Nc2c(-c3ccncn3)cnc3[nH]ccc23)C1 was tested on Non-receptor tyrosine-protein kinase TYK2 (Homo sapiens, UniProt P29597), and its pIC50 came to ≥ 8.00

Here CCc1cc(O)c(F)cc1-c1cc2[nH]ncc2c(NCc2ccccc2N(C)S(C)(=O)=O)n1 was tested on Non-receptor tyrosine-protein kinase TYK2 (Homo sapiens, UniProt P29597), and its pIC50 came to 8.33
